Test: Approximate solubility estimates (solvent incremental addition, visual observation)
Type: physicochemical
Conditions: CHCl3, organic solvent or mixture, thermodynamic from solid, CHCl3, ambient; read-out: Solubility
OBSERVABLE: solubility
A complete answer gives the number and then names the unit.

Per the record, CN(C)C(=O)Nc1cc(Oc2cnc3nc(Nc4cc(C(F)(F)F)cn(C)c4=O)n(C)c3c2C#N)ccn1 has solubility of 2000 µg/mL

###

Experiment: Approximate solubility estimates (solvent incremental addition, visual observation)
Type: physicochemical
Conditions: 1-BuOH:H2O (96:4), 85 °C, organic solvent or mixture, thermodynamic from solid, 1-BuOH:H2O (96:4), aw = 0.49, 85° C.; read-out: Solubility
OBSERVABLE: solubility (µg/mL)
Enter your answer as a number in µg/mL; do not include the unit.

So for CN(C)C(=O)Nc1cc(Oc2cnc3nc(Nc4cc(C(F)(F)F)cn(C)c4=O)n(C)c3c2C#N)ccn1 , the logged solubility turned out to be 1000

###

Test: Approximate solubility estimates (solvent incremental addition, visual observation)
Type: physicochemical
Details: EtOAc, organic solvent or mixture, thermodynamic from solid, EtOAc, ambient; read-out: Solubility
OBSERVABLE: solubility

Sample CN(C)C(=O)Nc1cc(Oc2cnc3nc(Nc4cc(C(F)(F)F)cn(C)c4=O)n(C)c3c2C#N)ccn1 ; solubility observed: < 1000 µg/mL

###

Assay: Approximate solubility estimates (solvent incremental addition, visual observation)
Type: physicochemical
Details: MeCN, organic solvent or mixture, thermodynamic from solid, MeCN, ambient; read-out: Solubility
OBSERVABLE: solubility

// solubility value for CN(C)C(=O)Nc1cc(Oc2cnc3nc(Nc4cc(C(F)(F)F)cn(C)c4=O)n(C)c3c2C#N)ccn1 : < 1000 µg/mL

###

Test: Approximate solubility estimates (solvent incremental addition, visual observation)
Assay type: physicochemical
Conditions: AcOH:H2O (20:80), aqueous with cosolvent or surfactant or cyclodextrin, thermodynamic from solid, AcOH:H2O (20:80), aw = 0.94, ambient; read-out: Solubility
OBSERVABLE: solubility (µg/mL)
# output: bare number, implied unit µg/mL

Given item CN(C)C(=O)Nc1cc(Oc2cnc3nc(Nc4cc(C(F)(F)F)cn(C)c4=O)n(C)c3c2C#N)ccn1 [Compound 1 Lot I] , the value recorded as its solubility is 1000

###

Test: Kinetic Solubility Assay
Assay type: physicochemical
Details: aqueous buffer, kinetic from dmso stock, PBS, RT, pH of the reported value not stated (method: pH 4.0 and pH 7.4)
OBSERVABLE: solubility at 2 h

solubility at 2 h recorded for this compound, CN(C)C(=O)Nc1cc(Oc2cnc3nc(Nc4cc(C(F)(F)F)cn(C)c4=O)n(C)c3c2C#N)ccn1 , is 9 to 100 µM

Attention now shifts to the item below.
Looking up CCN1CCN(Cc2ccc(Nc3nc4ccc(Oc5ccnc(NC(C)=O)c5)cc4n3C)cc2C(F)(F)F)CC1 [Compound R-1, reference compound] , I found its solubility at 2 h recorded as 100 to 200 µM

###

Assay: Approximate solubility estimates (solvent incremental addition, visual observation)
Type: physicochemical
Details: organic solvent or mixture, thermodynamic from solid, in acetone, chloroform, MEK, and aprotic solvents DMSO, DMAc, and NMP; ambient; read-out: limited solubility
Description: Approximate solubility estimates of Compound 1 Lot I were ascertained using the solvent incremental addition method and visual observation (Table 2.1). […] Approximate solubilities were calculated based on the total solvent used to achieve a solution, as judged by visual observation. Actual solubilities may be greater because of the volume of solvent portions utilized or a slow rate of dissolution. […] If dissolution occurred at the first aliquot, the value was reported as “>”
OBSERVABLE: solubility

Entry CN(C)C(=O)Nc1cc(Oc2cnc3nc(Nc4cc(C(F)(F)F)cn(C)c4=O)n(C)c3c2C#N)ccn1 ; solubility = 1000 to 8000 µg/mL

###

System: JAK2-mediated pSTAT5 signaling in constitutively active essential thrombocytopenia cells carrying the V617F mutation
Test: SET2-pSTAT5 Cellular Assay
Type: cell-based
Details: Homo sapiens, SET-2, 4 hours
OBSERVABLE: IC50

Notebook: CN(C)C(=O)Nc1cc(Oc2cnc3nc(Nc4cc(C(F)(F)F)cn(C)c4=O)n(C)c3c2C#N)ccn1 [Compound 1] , IC50 read as < 125 nM

Further cases:
Per the records, this compound ( CCN1CCN(Cc2ccc(Nc3nc4ccc(Oc5ccnc(NC(C)=O)c5)cc4n3C)cc2C(F)(F)F)CC1 [Compound R-1, reference compound] ) has IC50 equal to 200 to 1000 nM

###

Test: Approximate solubility estimates (solvent incremental addition, visual observation)
Format: physicochemical
Conditions: 1-BuOH:H2O (90:10), 80 °C, organic solvent or mixture, thermodynamic from solid, 1-BuOH:H2O (90:10), aw = 0.82, 80° C.; read-out: Solubility
OBSERVABLE: solubility (µg/mL)
Your answer should be a plain number; it is taken to be in µg/mL.

Input CN(C)C(=O)Nc1cc(Oc2cnc3nc(Nc4cc(C(F)(F)F)cn(C)c4=O)n(C)c3c2C#N)ccn1 . Output solubility: 4000

Attribution: patent US20240368157A1
